// values below are reported melting point

Worked set:
compound	resultType	result
CC(C)(C)CC(C)(C)NC(=O)C1=C(c2ccccc2)C(c2ccccc2)OC1=O (centres undefined)	melting point	110 to 111 °C
COc1ccc2c(CCN3CC=C(c4c[nH]c5cc(F)ccc45)CC3)coc2c1	melting point	181 °C
O=C1CCCc2nc3ccccc3c(NCc3ccccc3Cl)c21	melting point	150 to 161 °C
CNC(=O)c1cccc(Nc2ncnc3[nH]cc(C(=O)c4cccc(F)c4)c23)c1	melting point	> 300 °C
OC(CCCN1CCc2c(c3cc(F)ccc3n2-c2ccc(F)cc2)C1)c1ccc(F)cc1 (centres undefined)	melting point	145 to 149 °C
CN(C)C1CCCN(C(=O)c2n[nH]c3ccccc23)C1 (centres undefined)	melting point	141 to 142 °C

response.value for OC(C(c1cccc(Cl)c1)n1ccnc1)C12CC3CC(CC(C3)C1)C2 (centres undefined) (field: melting point) = 115 °C

response.value for `O=C(Nc1ccc(-c2c[nH]c(=O)cn2)cc1)c1cccc([N+](=O)[O-])c1` (field: melting point) = > 250 °C

response.value for `CC(C)n1nc(-c2c(-c3ccccc3)nn3ccc(OCCN4CCCC4=O)cc23)ccc1=O` (field: melting point) = 162 to 163 °C

====

resultType: melting point

compound	melting point
CN1CCN(c2cccc3c2C[C@H](NC(=O)c2ccc(N4CCSCC4)cc2)CC3)CC1	190 to 191 °C
CNC(=O)C1(CCC#N)c2ccccc2-c2ccccc21	185 to 187 °C

Now examine the next entry.
response.value for CCC(O)CC(O)CC (stereo not given) (field: melting point) = 60 to 65 °C

====

resultType: melting point

Worked set:
moleculeSmiles	result
Cc1cc(NCc2ccc3oc(-c4ccccc4-c4nnn[nH]4)c(Br)c3c2)n2nccc2n1	> 250 °C
COc1ccc2c3c(oc2c1)CCC(C(=O)O)=C3	228 to 231 °C
CN1C(=O)CCC(C)(C)c2cc(NC(=O)c3ccc(C(=O)O)cc3)ccc21	> 275 °C

response.value for `O=c1nc(N(CCO)c2ccccc2)sc2ncccc12` (field: melting point) = 168 to 169 °C

response.value for `COc1nc(Nc2ccc(Cl)cc2[N+](=O)[O-])nc(OC)n1` (field: melting point) = 206 to 208 °C

====

resultType: melting point

Worked set:
compound	resultType	result
CCOC(=O)C(C)OCC#Cc1cc(Cl)ccc1NS(=O)(=O)c1ccc2ncsc2c1 (centres undefined)	melting point	166 to 168 °C
COc1ccc2c(c1)C(CCNC(C)=O)CN(Cc1ccccc1)C2 (centres undefined)	melting point	123 to 125 °C
CC1(C)OC(=O)C(CO)(c2ccc(Cl)cc2Cl)O1 (centres undefined)	melting point	182 to 185 °C
COC1N=C(c2ccccc2Cl)c2cc(Cl)ccc2-c2c[nH]cc21 (centres undefined)	melting point	215 to 218 °C
CC(C)N(CCNC(=O)c1csc(NC(=O)C2=CC=CC(=Nc3ccc[nH]3)C2)n1)C(C)C	melting point	160 to 162 °C

response.value for `CCOC(=O)c1cc(-n2c(=O)cc[nH]c2=O)ccc1Cl` (field: melting point) = 170 to 172 °C

response.value for `CC(=O)NC[C@H]1CN(c2ccc(N3CCC(O)(C(N)=O)CC3)c(F)c2)C(=O)O1` (field: melting point) = 238 to 240 °C

response.value for O=C(NC(Cc1ccc(OCc2ccc(C(F)(F)F)cc2)cc1)C(=O)O)c1cc2cc(-c3ccc(Cl)cc3)ccc2s1 (centres undefined) (field: melting point) = 198 °C

response.value for `Cc1cc(F)cc2c1CC/C2=C\C(=O)O` (field: melting point) = 243 to 246 °C
